tested on: HACAT; test: qHTS assay to identify novel small-molecules to repurpose for Merkel cell carcinoma treatment (AID 1296009); conditions: MCC and control cell lines, CellTiter-Glo viability, 72 h; at 44.8 µM (top of the series) unless noted; also: nearly all actives have a fitted effect of over 60% in size
Inconclusive results are not listed. The source made the active and inactive calls. Calls follow the shape of the dose curve; as a rule, active = well fitted inhibition curve with a large enough effect; inconclusive = small, poorly fitted or top-dose-only effect; inactive = flat fitted curve, though single readings scatter. Where a SMILES comes first, the peptide text is derived from it.
value-type: outcome

Worked examples, 10 molecules total:
molecule="COC(=O)C1=COC(OC2OC(CO)C(O)C(O)C2O)C2C(COC(=O)/C=C/c3ccc(O)cc3)C(O)C(O)C12 (stereo not drawn)" target_system=HACAT observed_measurement="inactive [at 17.4 µM]"
molecule=COC(=O)C1=CO[C@@H](O[C@@H]2O[C@H](CO)[C@@H](O)[C@H](O)[C@H]2O)[C@H]2[C@@H]1C=C[C@]21C=C([C@H](C)OC(=O)/C=C/c2ccc(O[C@@H]3O[C@H](CO)[C@@H](O)[C@H](O)[C@H]3O)cc2)C(=O)O1 target_system=HACAT observed_measurement="inactive [at 17.4 µM]"
molecule="O=C(O)c1cccc(C(=O)CCC2OC(n3cnc4c(=O)[nH]cnc43)C(O)C2O)c1 (stereo not drawn)" target_system=HACAT observed_measurement="inactive [at 17.4 µM]"
molecule="C=C1CCC2(C(=O)OC3OC(CO)C(O)C(O)C3O)CCC3(C)C(=CCC4C5(C)CCC(OC6OC(CO)C(OC7OC(C)C(O)C(O)C7O)C(OC7OCC(O)C(O)C7O)C6O)C(C)(C)C5CCC43C)C2C1 (stereo not drawn)" target_system=HACAT observed_measurement="inactive [at 9.27 µM]"
molecule="COc1ccc(OC2OC(CO[C@@H]3O[C@@H](C)[C@H](O)[C@@H](O)[C@H]3O)C(O)C(O)C2O)cc1OC (stereo partly drawn)" target_system=HACAT observed_measurement="inactive [at 17.4 µM]"
molecule="CC(=O)OCC1OC(O[C@H]2CC[C@@]3(C)C(CC[C@]4(C)C3CC=C3[C@@H]5CC(C)(C)CC[C@]5(C(=O)O)CC[C@]34C)[C@]2(C)CO)C(O)C(O)C1OC1OC(C)C(O)C(OC2OCC(O)C(O)C2O)C1O (stereo partly drawn)" target_system=HACAT observed_measurement="inactive [at 9.27 µM]"
molecule=O=C(O[C@H]1[C@H](Oc2ccc(O)cc2CO)O[C@H](CO)[C@@H](O)[C@@H]1O)c1ccccc1 target_system=HACAT observed_measurement="inactive [at 17.4 µM]"
molecule="CC(C)c1ccc2c(c1)CCC1[C@](C)(C(=O)O)CCC[C@]21C (stereo partly drawn)" target_system=HACAT observed_measurement=inactive
molecule=COc1cc(C(=O)OC[C@H]2O[C@@H](OC(C)(C)C(=O)O)[C@H](O)[C@@H](O)[C@@H]2O)cc(OC)c1O target_system=HACAT observed_measurement="inactive [at 17.4 µM]"
molecule=C[C@]12CC[C@@H]3c4ccc(O)cc4CC[C@H]3[C@@H]1C[C@@H](O[C@@H]1O[C@H](C(=O)O)[C@@H](O)[C@H](O)[C@H]1O)[C@@H]2O target_system=HACAT observed_measurement=inactive

Request: Given the molecule CCC(C)C(=O)OC[C@H]1O[C@H](O[C@H]2O[C@H](CO)[C@@H](O)[C@H](O)[C@H]2O)[C@H](O)[C@@H](O)[C@@H]1O (stereo partly drawn) , what is its reported outcome?
Result: inactive [at 17.4 µM]

Request: Given the molecule CSCC[C@H](NC(=O)[C@H](CO)NC(=O)[C@H](CCC(=O)O)NC(C)=O)C(=O)N[C@H](C=O)CC(=O)O (Ac-ESMD-aldehyde) , what is its reported outcome?
Result: inactive [at 9.27 µM]

Request: Given the molecule `CC1=C[C@@H]2[C@H]3[C@@H]4O[C@@](C)(CC[C@H]4O)[C@H]3CC(=O)[C@]23C(=O)N[C@@H](CC(C)C)[C@@H]3[C@@H]1C` , what is its reported outcome?
Result: inactive

Request: Given the molecule CCC(C)(C)C1CCc2c(sc(NC(=O)c3ccc(Br)cc3)c2C#N)C1 (stereo not drawn) , what is its reported outcome?
Result: inactive

Request: Given the molecule COC1OC(O)C2(CCC3(O2)C(C)CC2OC(=O)C4(C)CCCC3(C)C24)C1O (stereo not drawn) , what is its reported outcome?
Result: inactive

Request: Given the molecule CC1(C)CC[C@]2(C(=O)O[C@@H]3O[C@H](CO)[C@@H](O)[C@H](O)[C@H]3O)[C@H](O)C[C@]3(C)C(=CCC4[C@@]5(C)CC[C@H](O[C@@H]6OC[C@@H](O)[C@H](O)[C@H]6O)[C@@](C)(C(=O)O)C5CC[C@]43C)[C@@H]2C1 (stereo partly drawn) , what is its reported outcome?
Result: inactive [at 17.4 µM]

Request: Given the molecule `C/C=C(\C)C(=O)O[C@H]1C=CC(=O)O[C@H]1/C=C/[C@H](O)[C@@H](C)O` , what is its reported outcome?
Result: inactive

Request: Given the molecule `O=C(/C=C/c1ccccc1)OC[C@H]1O[C@@H](OC(=O)c2cc(O)c(O)c(O)c2)[C@H](O)[C@@H](O)[C@@H]1O` , what is its reported outcome?
Result: inactive [at 17.4 µM]

Request: Given the molecule CC(C)=C1CC2[C@](C)(CC[C@@H](OC(=O)C3(C)OC3C)[C@@]2(C)O)CC1=O (stereo partly drawn) , what is its reported outcome?
Result: inactive

Request: Given the molecule CC1(C(=O)O)CCCC2(C)C3CCC4CC3(CCC12)CC4C(=O)O (stereo not drawn) , what is its reported outcome?
Result: inactive

Request: Given the molecule CCC(C)C(C(=O)O)N1Cc2c(OCC=C(C)C)c(C)c(OC)c(C(=O)O)c2C1=O (stereo not drawn) , what is its reported outcome?
Result: inactive [at 17.4 µM]

Request: Given the molecule CC1(C)CC2C(O)C3=C(CC(C)(O)C2C1)C(=O)OC3 (stereo not drawn) , what is its reported outcome?
Result: inactive

Request: Given the molecule C[C@]1(OC(=O)/C=C/c2ccc(O)cc2)C[C@@H](O)[C@]2(O)C=CO[C@@H](O[C@@H]3O[C@H](CO)[C@@H](O)[C@H](O)[C@H]3O)C12 (stereo partly drawn) , what is its reported outcome?
Result: inactive [at 17.4 µM]

Request: Given the molecule CO[C@H]1c2cc(C(C)C)c(O)c(O)c2[C@@]23CCCC(C)(C)C2[C@@H]1OC3=O (stereo partly drawn) , what is its reported outcome?
Result: inactive

Request: Given the molecule COC(=O)C1=CO[C@@H](O[C@@H]2O[C@H](CO)[C@@H](O)[C@H](O)[C@H]2O)[C@@H]2[C@@H](CO)[C@@H](O)C(O)[C@H]12 (stereo partly drawn) , what is its reported outcome?
Result: inactive [at 17.4 µM]

----------
Give measured activity for each item. Keep answers brief.
molecular target: Phenylethanolamine N-methyltransferase (Homo sapiens); assay: Confirmatory Screen for Target Class Profiling of Small Molecule Inhibitors of Methyltransferases (AID 1745852); settings: MTase-Glo luminescence, SAH detection, recombinant enzyme; measured here: PNMT max response; stronger effect = lower value
Form entry: value (%) — number only.

Request: Given the compound CC(=O)NC(Cc1c[nH]c2ccccc(=O)c12)C(=O)O (centres undefined) , what is its reported activity?
Result: -0.114

Request: Given the compound `OC[C@H]1O[C@@H](OCCc2ccccc2)[C@H](O[C@@H]2OC[C@@H](O)[C@H](O)[C@H]2O)[C@@H](O)[C@@H]1O` , what is its reported activity?
Result: -1.31

Request: Given the compound O=C(O)CC(CCc1ccccc1)OC1OC(CO)C(O)C(O)C1O (centres undefined) , what is its reported activity?
Result: -2.51

Request: Given the compound CC(C)(O)C1CC=C(C(=O)OC[C@H]2O[C@@H](Oc3cc(C(=O)O)cc(O)c3O)[C@H](O)[C@@H](O)[C@@H]2O)CC1 (some centres undefined) , what is its reported activity?
Result: -6.07

----------
biological target: Luciferin 4-monooxygenase (Photinus pyralis); test: Primary firefly luciferase (FLuc) qHTS assay for identification of artifact compounds. (AID 1845220); conditions: purified firefly luciferase, luminescence, 5 min; series mostly up to 54.1 µM; also: potency is read from the fitted curve at half-maximal effect; nearly all actives have a fitted effect of over 60% in size
Calls of active or inactive are those of the source. The call rests on the fitted dose curve; in most records, active means well fitted inhibition curve with a large enough effect; inconclusive means small, poorly fitted or top-dose-only effect; inactive means flat fitted curve, though single readings scatter.
value-type: Potency

Request: Given the molecule `CC1(C)CC=C(C#Cc2ccccc2)c2cc(/C=C/c3ccc(C(=O)O)cc3)ccc21` , what is its reported Potency?
Result: 10.7 µM (active)

Request: Given the molecule COc1ccc(C2COc3cc(O)ccc3C2)c(O)c1OC (stereo not given) , what is its reported Potency?
Result: 19 µM (active)

Request: Given the molecule `NC(=O)[C@@H]1CC[C@H](c2ccc(OCc3ccccc3F)cc2)N1` , what is its reported Potency?
Result: 10.7 µM (active)

Request: Given the molecule `CC(C)=CCc1c(O)cc2oc3cc(C)cc(O)c3c2c1C` , what is its reported Potency?
Result: 12 µM (active)

Request: Given the molecule `c1ccc2c(Nc3nnc(-c4ccncc4)s3)cccc2c1` , what is its reported Potency?
Result: 7.57 µM (active)

Every entry's value here was drawn from PubChem BioAssay (NCATS).
